target: kappa opiate receptor (Cavia porcellus, UniProt P41144); construct: Membrane samples prepared from the cerebellum of guinea pigs; from tissue; host or cells: guinea pig cerebellum membranes; assay: Test for distinction between agonist and antagonist on the kappa opiate receptor (3H diprenorphine, with or without NaCl and GTP); format: binding, guinea pig; conditions: guinea pig cerebellum membranes, 0.3 nM 3H diprenorphine, NaCl 100 mM, GTP 50 uM; read-out: IC50 in the presence of GTP and NaCl
Sequence (P41144 whole entry): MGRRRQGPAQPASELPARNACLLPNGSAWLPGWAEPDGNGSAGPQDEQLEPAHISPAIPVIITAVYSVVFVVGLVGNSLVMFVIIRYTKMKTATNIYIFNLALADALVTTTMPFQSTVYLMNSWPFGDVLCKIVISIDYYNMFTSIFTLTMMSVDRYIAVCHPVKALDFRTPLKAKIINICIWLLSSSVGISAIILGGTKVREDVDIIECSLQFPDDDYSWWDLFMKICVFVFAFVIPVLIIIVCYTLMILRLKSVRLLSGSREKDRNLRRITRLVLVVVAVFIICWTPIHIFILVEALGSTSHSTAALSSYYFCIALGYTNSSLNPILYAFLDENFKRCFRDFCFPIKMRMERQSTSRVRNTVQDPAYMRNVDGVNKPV
assay.metric: IC50 (nM)
Response body: numeric value in nM, unit text excluded.

Could you tell me which IC50 is on file for CCCCCN(CCc1ccccc1)CCc1cccc(O)c1 ?
135
